Answer each item with its documented Ki.
# assayed-system: G-protein coupled estrogen receptor 1 (Homo sapiens)
# Sequence (Q99527 whole entry): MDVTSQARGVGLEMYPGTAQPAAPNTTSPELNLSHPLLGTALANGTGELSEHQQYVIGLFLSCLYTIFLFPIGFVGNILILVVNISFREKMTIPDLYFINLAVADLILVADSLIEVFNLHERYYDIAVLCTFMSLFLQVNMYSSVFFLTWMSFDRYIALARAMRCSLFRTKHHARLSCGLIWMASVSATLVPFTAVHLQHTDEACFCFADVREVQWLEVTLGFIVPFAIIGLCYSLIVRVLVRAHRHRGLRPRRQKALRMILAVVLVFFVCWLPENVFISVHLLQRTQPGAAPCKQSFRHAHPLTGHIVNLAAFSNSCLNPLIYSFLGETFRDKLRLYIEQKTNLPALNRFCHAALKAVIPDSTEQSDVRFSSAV
Give bare numbers, in nM.

Here is how some molecules turned out for Ki.
C[C@]12CCC3c4ccc(O)cc4CCC3C1CC[C@@]2(O)C#Cc1ccc(CN)cc1 (some centres undefined) [E2-NH3+] : 25
CC(C)(C)OC(=O)NCc1ccc(C#C[C@]2(O)CCC3C4CCc5cc(O)ccc5C4CC[C@@]32C)cc1 (some centres undefined) [E2-NB] : 16
C[C@]12CCC3c4ccc(O)cc4CCC3C1CC[C@@]2(O)C#Cc1cccc(C(=O)O)c1 (some centres undefined) [E2-COO-] : 30

Consider the additional molecule presented here.
Returns the measured Ki for the input molecule. Input: C[C@]12CCC3c4ccc(O)cc4CCC3C1CC[C@@]2(O)C#Cc1ccc([N+](C)(C)C)cc1 (some centres undefined) [E2-NMe3+]
17
